All figures here come from ChEMBL document CHEMBL1961873.

So I've got a bunch of compounds here, and I need their inhibition values.
Molecular target: Dual specificity tyrosine-phosphorylation-regulated kinase 1B (Homo sapiens) (UniProt Q9Y463);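 note: values are mean percent inhibition of DYRK1B, from the GSK_PKIS set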
Sequence (Q9Y463 whole entry, looked up): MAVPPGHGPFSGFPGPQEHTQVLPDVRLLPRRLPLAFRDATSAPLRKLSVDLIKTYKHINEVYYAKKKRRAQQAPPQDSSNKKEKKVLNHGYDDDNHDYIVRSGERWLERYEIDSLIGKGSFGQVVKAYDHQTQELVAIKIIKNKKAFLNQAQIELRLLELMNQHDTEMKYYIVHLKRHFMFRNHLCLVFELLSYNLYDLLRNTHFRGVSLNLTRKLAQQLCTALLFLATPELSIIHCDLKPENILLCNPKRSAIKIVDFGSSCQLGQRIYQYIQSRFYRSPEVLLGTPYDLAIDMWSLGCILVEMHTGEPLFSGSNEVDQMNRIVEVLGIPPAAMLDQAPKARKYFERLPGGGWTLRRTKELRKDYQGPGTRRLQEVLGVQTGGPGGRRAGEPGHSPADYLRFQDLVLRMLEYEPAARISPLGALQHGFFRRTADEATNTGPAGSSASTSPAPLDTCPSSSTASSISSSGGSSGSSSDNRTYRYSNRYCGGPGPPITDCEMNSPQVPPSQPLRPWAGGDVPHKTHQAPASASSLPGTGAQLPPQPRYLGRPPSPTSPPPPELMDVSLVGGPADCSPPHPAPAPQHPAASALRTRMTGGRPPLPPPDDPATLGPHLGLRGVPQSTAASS
Conditions: at 1 µM
Numbers only, in %.

Look over these answered cases.
Input line: Complete the entry with inhibition for Cn1c(-c2nonc2N)nc2cnccc21
Output line: 51.4

Input line: Complete the entry with inhibition for N#Cc1cccc(Nc2ncc(-c3ccccc3)o2)c1
Output line: 3.53

Input line: Complete the entry with inhibition for c1cnn2ncc(-c3ccnc(NCCCN4CCOCC4)n3)c2c1
Output line: 40.3

Input line: Complete the entry with inhibition for CC(C)c1ccc(-c2cc(-c3c[nH]nc3-c3ccccn3)ccn2)cc1
Output line: 1.3

Input line: Complete the entry with inhibition for c1ccc(-c2n[nH]cc2-c2ccnc(-c3ccc(OCCn4ccnc4)cc3)c2)nc1
Output line: 0.62

Here is the next item to consider.
Input line: Complete the entry with inhibition for NS(=O)(=O)c1ccc(N/N=C2\C(=O)Nc3cccc(CCc4ccncc4)c32)cc1
Output line: 6.1
